# Assayed system: CDK2/CycA (Homo sapiens (Human))
# Assay method text: Z'LYTE kinase assay for CDK2/CycA at Km ATP
# Assay type: biochemical
# Condition details: read-out: IC50 CDK2 Z′LYTE kinase assay
Quantity kind: IC50 (nM)

A selection of reference data follows.
CN(C)C/C=C/C(=O)Nc1cccc(S(=O)(=O)N2CCC(NC(=O)c3nscc3NC(=O)c3c(Cl)cccc3Cl)CC2)c1 | 439
COc1cccc(F)c1C(=O)Nc1c[nH]nc1C(=O)NC1CCN(S(=O)(=O)c2cccc(NC(=O)/C=C/CN(C)C)c2)CC1 | 3.7
Cc1[nH]nc(C(=O)NC2CCN(S(=O)(=O)c3cccc(NC(=O)/C=C/CN(C)C)c3)CC2)c1NC(=O)c1c(Cl)cccc1Cl | 125
CN(C)C/C=C/C(=O)Nc1cccc(N2CCC(NC(=O)c3n[nH]cc3NC(=O)c3c(Cl)cccc3Cl)CC2)c1 | 20
C=CC(=O)Nc1ccc(CNC(=O)c2n[nH]cc2NC(=O)c2c(Cl)cccc2Cl)cc1 | 15

a. CN(C)C/C=C/C(=O)Nc1cccc(S(=O)(=O)N2CCC(NC(=O)c3n[nH]cc3NC(=O)c3c(Cl)cccc3Cl)CC2)c1
b. CN(C)C/C=C/C(=O)Nc1cccc(S(=O)(=O)N2CCC(NC(=O)c3n[nH]cc3NC(=O)c3c(F)cccc3F)CC2)c1
# return whichever of a and b has the smaller IC50 # reply format: chosen label
a
(a: 0.9 nM, b: 2.6 nM)
